assay: protein stability index of a GFP-peptide fusion (yeast GPS) (PSI 1-4); higher = more stable; sorted into four equal gates, so the index is relative within each strain; details: pdr5∆
Decide using protein stability index: a value greater than or equal to 3 is t, a smaller one is f.

seq	class_name
AGDWKYDRQLSSLFLDG [FAS2]	f
EFEKKLQETLNKSTSSE [YIL149C/MLP2]	f
PTPSVKTEPVGTGLQSY [RPC53]	t
ADINKNFLSVITNKHQE [RPN2]	f
ADESKMAKLNECPLDPG [RET1]	f
KISEDPVKALNECIAST [SNF12]	f
IVKTSSGNEMPPQDAEG [RPS19A]	t
QLPVGFKNMGNTCYLNA [UBP6]	f
NSWFDVTWRTFTGDFLR [FAS1]	f
ILSLEQSSRVVSLSQLL [YCS4]	f
FHTSFSAVVGPNGSGKS [SMC4]	t
QLEEDENITNKVTEKVL [CSI1]	t
TSLTSIKWENAFVSVYS [PRP8]	f
LRPGQEISLKAHCILGI [RPC40]	f
HKSDVMSVDIDKKASMI [ASC1]	f
YILRYLHANGASFFFMV [COB]	f
YLERIELSFYILYSFKL [YML103C/NUP188]	f
PANVLLVQSLNDMVLEL [NNF1]	f
RERQVNEKLADLGLEKE [RPC53]	t
GVWDVDNPLRQIPHFNN [BRR2]	t
QQQQQQQQQQQHIYPSS [GAL11]	f
DSNSEILNFLNQEDLFE [YML103C/NUP188]	f
VGLRSNTHAVLVALKRN [PRE5]	f
PADRPQGRRNSRNFSTR [SIR4]	t
SETDKRQFLHELRRPGV [RPO31]	f
TADKIRIHAKNFEAALF [GAL11]	f
SKKQRNNGSKDHGDGIL [RPN9]	f
TVHKTFEGNVATKAING [PRP8]	f
FTVNVLYPDSSSFKKNL [RPN3]	f
EQELAHILLTELLAYQF [FAS2]	f
LAKKWFLQHPDEEYPVK [PRP8]	t
RMFEKNVMLNIYPRTVI [SKI6]	f
